molecular target: TBK1 (Homo sapiens (Human)); assay: TBK1 low ATP kinase assay (in vitro assay 1); format: biochemical; settings: in vitro assay 1, read-out: TBK1 low ATP kinase assay IC50
reported_endpoint: IC50 (nM)

Below: 3 compounds and their reported IC50.
# compound, reported_endpoint, meas_value
measured = [
    ("CC(c1ccnc(Nc2nc3ccc(-c4cnn(CC5CC5(F)F)c4)c(Cl)c3[nH]2)c1)N1CCN(C(=O)C2CC2)CC1 (single isomer, unassigned) [Example 70.02]", "IC50", 0.73),
    ("COc1c(NCC2CC2)ncnc1-c1ccc2nc(Nc3cc(C(C)N4CCN(C(=O)CC(F)(F)F)CC4)ccn3)[nH]c2c1 (single isomer, unassigned) [Example 109.02.03]", "IC50", 2.4),
    ("COc1cnnc(-c2ccc3nc(Nc4cc(CN5CCN(C(=O)C6CC6)CC5)ccn4)[nH]c3c2)c1 [Example 47.02]", "IC50", 504),
]

(P) O=C(CC(F)(F)F)N1CCN(Cc2ccnc(Nc3nc4ccc(-c5ccnc(N6CCOCC6)c5)cc4[nH]3)c2)CC1 [Example 134.02]
(Q) COc1cncnc1-c1ccc2nc(Nc3cc(C(C)N4CCN(C(=O)CC(F)(F)F)CC4)ccn3)[nH]c2c1 (single isomer, unassigned) [Example 35.03.01.A]
(R) COc1cncnc1-c1ccc2nc(Nc3cc(CN4CCN(S(=O)(=O)C5CCCCC5)CC4)ccn3)[nH]c2c1 [Example 35.01.13]
(S) O=C(C1CC1)N1CCN(Cc2ccnc(Nc3nc4ccc(-c5cc(NC6CCC6)ncn5)cc4[nH]3)c2)CC1 [Example 152.03]
(T) COCc1cc(-c2ccc3nc(Nc4cc(C(C)N5CCN(C(=O)C6CC6)CC5)ccn4)[nH]c3c2)ncn1 (single isomer, unassigned) [Example 84.03]
Query string: Endpoint returns the given compounds ordered by ascending IC50. Use the labels to give the ranking in the order requested.
Result string: S, T, Q, P, R

----------
molecular target: TBK1 (Homo sapiens (Human)); assay: TBK1 low ATP kinase assay (in vitro assay 1); type: biochemical; settings: in vitro assay 1, read-out: TBK1 low ATP kinase assay IC50
pIC50: −log10 of the molar value.
reported_endpoint: pIC50

# compound, pIC50
data = [
    ("Cn1ccc(-c2ccc3nc(Nc4cc(CN5CCN(C(=O)CC(F)(F)F)CC5)ccn4)[nH]c3c2)n1", 5.95),
    ("Cc1noc(-c2ccc3nc(Nc4cc(CN5CCN(C(=O)CC(F)(F)F)CC5(C)C)ccn4)[nH]c3c2)n1", 6.30),
    ("CC(c1ccnc(Nc2nc3ccc(-c4cc(C(F)(F)F)ncn4)c(F)c3[nH]2)c1)N1CCN(C(=O)C2(C(F)(F)F)CC2)CC1 (single isomer, unassigned)", 6.83),
]

(P) COc1cc(-c2ccc3nc(Nc4cc(CN5CCN(C(=O)OC(C)(C)C)CC5)ccn4)[nH]c3c2)ccn1
(Q) O=C(CC(F)(F)F)N1CCN(Cc2ccnc(Nc3nc4ccc(-c5ncnc(NCC6CC6)c5F)cc4[nH]3)c2)CC1
Query string: Could you check which of P and Q has a smaller value for pIC50? Kindly give the label for the entry you pick.
Result string: P
(P: 6.88, Q: 7.47)

----------
molecular target: TBK1 (Homo sapiens (Human), UniProt Q9UHD2); assay: TBK1 low ATP kinase assay (in vitro assay 1); format: biochemical; details: in vitro assay 1, read-out: TBK1 low ATP kinase assay IC50
Sequence (Q9UHD2 whole entry): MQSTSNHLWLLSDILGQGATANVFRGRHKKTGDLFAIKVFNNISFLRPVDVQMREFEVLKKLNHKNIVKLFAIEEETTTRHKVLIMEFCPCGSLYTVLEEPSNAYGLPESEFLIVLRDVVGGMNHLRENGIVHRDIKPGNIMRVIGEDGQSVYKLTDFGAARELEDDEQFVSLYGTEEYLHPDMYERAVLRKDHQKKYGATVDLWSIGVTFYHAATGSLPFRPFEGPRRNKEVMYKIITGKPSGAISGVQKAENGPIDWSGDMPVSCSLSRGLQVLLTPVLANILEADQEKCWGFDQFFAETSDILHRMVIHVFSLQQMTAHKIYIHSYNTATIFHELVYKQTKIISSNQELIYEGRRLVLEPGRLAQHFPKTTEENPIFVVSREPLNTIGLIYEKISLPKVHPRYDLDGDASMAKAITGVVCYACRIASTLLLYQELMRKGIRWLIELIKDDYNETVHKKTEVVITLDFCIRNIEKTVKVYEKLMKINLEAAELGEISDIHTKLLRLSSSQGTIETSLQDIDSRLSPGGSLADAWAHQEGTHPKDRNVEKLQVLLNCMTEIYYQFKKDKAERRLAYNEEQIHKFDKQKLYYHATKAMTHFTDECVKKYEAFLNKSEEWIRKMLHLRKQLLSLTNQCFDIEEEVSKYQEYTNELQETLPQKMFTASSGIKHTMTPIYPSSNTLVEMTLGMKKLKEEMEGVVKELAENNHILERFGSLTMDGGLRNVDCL
pIC50: −log10 of the molar value.
reported_endpoint: pIC50

Sample answers from the record:
# compound, pIC50
measured = [
    ("CC(C)Nc1ncnc(-c2ccc3nc(Nc4cc(CN5CCN(C(=O)CC(F)(F)F)CC5)ccn4)[nH]c3c2)c1F", 7.46),
    ("O=C(CC(F)(F)F)N1CCN(Cc2ccnc(Nc3nc4ccc(-c5ncnc6c5COC6)cc4[nH]3)c2)CC1", 6.96),
    ("CC(c1ccnc(Nc2nc3ccc(-c4cnn(C(C)C5CC5)c4)cc3[nH]2)c1)N1CCN(C(=O)OC(C)(C)C)CC1 (single isomer, unassigned)", 6.92),
    ("CC(c1ccnc(Nc2nc3ccc(-c4cc(N5CCOCC5)ncn4)cc3[nH]2)c1)N1CCN(C(=O)C2(C(F)(F)F)CC2)CC1 (single isomer, unassigned)", 8.59),
    ("Cc1cncnc1-c1ccc2nc(Nc3cc(CN4CCN(C(=O)CC(F)(F)F)CC4)ccn3)[nH]c2c1", 6.70),
]

(a) COc1cc(-c2ccc3nc(Nc4cc(CN5CCN(C(=O)CC(F)(F)F)CC5)ccn4)[nH]c3c2)c(F)cn1
(b) CC(C)(C)OC(=O)N1CCN(Cc2ccnc(Nc3nc4ccc(-c5ccnc(OCC6CC6)n5)cc4[nH]3)c2)CC1
Query string: Choose between a and b : whose measured pIC50 value is numerically larger? Pick one; state its label.
Result string: b
